- System: SW837
- assay.comment: Cell growth inhibition (CellTiter-Glo), colon cancer line SW837
- Type: cell-based
pIC50: −log10 of the molar value.
quantity.measured: pIC50

Q: Provide pIC50 value for the following molecule: Cc1sc2c(c1C)C(c1ccc(Cl)cc1)=N[C@@H](CC(=O)NCCCCNC(=O)COc1cccc3c1C(=O)N(C1CCC(=O)NC1=O)C3=O)c1nnc(C)n1-2 (stereo partly shown) [dBET1, reference compound]
Result: < 5.30

----------
- Test system: MOLM-13
- assay.comment: Cell growth inhibition (CellTiter-Glo), MOLM-13
- Assay type: cell-based
- condition.description: MOLM-13 cells, 4 days
We begin with a simple list: items and their reported pIC50.
The scale used: pIC50 is minus the common logarithm of the concentration in molar units.

CCn1nc(C2CC2)cc1Nc1nc(C(=O)NCCOCCOCCNc2cccc3c2C(=O)N(C2CCC(=O)NC2=O)C3=O)nc2[nH]c3cc(-c4c(C)noc4C)c(OC)cc3c12 (centres unmarked) [compound 65] = 7.33

Now, please, on to the next molecule.
Q: Provide pIC50 value for the following molecule: CCn1nc(C2CC2)cc1Nc1nc(C(=O)NCCOCCOCCNc2cccc3c2C(=O)N(C2CCC(=O)NC2=O)C3=O)nc2[nH]c3cc(-c4c(C)noc4C)c(OC)cc3c12 (centres unmarked) [Cpd. No. 13]
Result: 8.10

----------
- System: LS411N
- assay.comment: Cell growth inhibition (CellTiter-Glo), colon cancer line LS411N
- Format: cell-based
- condition.description: Homo sapiens, LS-411N
- Method: Cell growth inhibitory activity of representative BET bromodomain degraders in representative non-small cell lung cancer cell lines was determined using the CellTiter-Glo® Luminescent Cell Viability Assay. […] Cell viability was determined using the CellTiter-Glo® Luminescent Cell Viability Assay Kit (Promega, Madison, Wis.) according to the manufacture's instruction. […] The luminescent signal was measured using a Tecan Infinite M1000 multimode microplate reader (Tecan, Morrisville, N.C.). […]
We begin with a simple list: items and their reported pIC50.
The scale used: pIC50 is minus the common logarithm of the concentration in molar units.

Here are 2 compounds together with their reported answers.
CCn1nc(C2CC2)cc1Nc1nc(C(=O)NCCCCNc2cccc3c2C(=O)N(C2CCC(=O)NC2=O)C3=O)nc2[nH]c3cc(-c4c(C)noc4C)c(OC)cc3c12 (stereo not drawn) [Cpd. No. 9] = 6.25
CCn1nc(C2CC2)cc1Nc1nc(C(=O)NCCCOCCOCCOCCCNc2cccc3c2C(=O)N(C2CCC(=O)NC2=O)C3=O)nc2[nH]c3cc(-c4c(C)noc4C)c(OC)cc3c12 (stereo not drawn) [Cpd. No. 4] = 7.00

Now, please, on to the next compound.
Q: Provide pIC50 value for the following compound: CCn1nc(C2CC2)cc1Nc1nc(COC)nc2[nH]c3cc(-c4c(C)noc4C)c(OC)cc3c12 [Cpd. A, reference compound]
Result: 6.96

----------
- Test system: H1650
- assay.comment: Cell growth inhibition (CellTiter-Glo), NSCLC line H1650
- Format: cell-based
- condition.description: H1650 non-small cell lung cancer cell line, 4 days
quantity.measured: pIC50
The scale used: pIC50 is minus the common logarithm of the concentration in molar units.

Q: Provide pIC50 value for the following compound: Cc1sc2c(c1C)C(c1ccc(Cl)cc1)=N[C@@H](CC(=O)NCCCCNC(=O)COc1cccc3c1C(=O)N(C1CCC(=O)NC1=O)C3=O)c1nnc(C)n1-2 (stereo partly shown) [dBET1, reference compound]
Result: 5.64
